- System: HARA
- Procedure Summary: relative viability (nuclei count vs DMSO), 5 days (fraction); higher = more cells survive
- Experimental Parameters: first compound 0.4 µM
Endpoint: relative viability
Enter the number alone.

// query Missing value: relative viability, HARA, entry Cc1sc2c(c1C)C(c1ccc(Cl)cc1)=N[C@@H](CC(=O)OC(C)(C)C)c1nnc(C)n1-2 [JQ1] + CC1(C)CCC(c2ccc(Cl)cc2)=C(CN2CCN(c3ccc(C(=O)NS(=O)(=O)c4ccc(N[C@H](CCN5CCOCC5)CSc5ccccc5)c(S(=O)(=O)C(F)(F)F)c4)cc3)CC2)C1 [Navitoclax] (partner 0.5 µM) . Fill in?
// result 0.781

// query Missing value: relative viability, HARA, entry Cc1sc2c(c1C)C(c1ccc(Cl)cc1)=N[C@@H](CC(=O)OC(C)(C)C)c1nnc(C)n1-2 [JQ1] + CS(=O)(=O)N1CCN(Cc2cc3nc(-c4cccc5[nH]ncc45)nc(N4CCOCC4)c3s2)CC1 [Pictilisib] (partner 1 µM) . Fill in?
// result 0.379

// query Missing value: relative viability, HARA, entry Cc1sc2c(c1C)C(c1ccc(Cl)cc1)=N[C@@H](CC(=O)OC(C)(C)C)c1nnc(C)n1-2 [JQ1] + CC(=O)c1c(C)c2cnc(Nc3ccc(N4CCNCC4)cn3)nc2n(C2CCCC2)c1=O [Palbociclib] (partner 0.5 µM) . Fill in?
// result 0.228

// query Missing value: relative viability, HARA, entry Cc1sc2c(c1C)C(c1ccc(Cl)cc1)=N[C@@H](CC(=O)OC(C)(C)C)c1nnc(C)n1-2 [JQ1] + N=C(N)NC(=N)NCCc1ccccc1 [Phenformin] (partner 250 µM) . Fill in?
// result 0.484

// query Missing value: relative viability, HARA, entry Cc1sc2c(c1C)C(c1ccc(Cl)cc1)=N[C@@H](CC(=O)OC(C)(C)C)c1nnc(C)n1-2 [JQ1] + CS(=O)(=O)CCNCc1ccc(-c2ccc3ncnc(Nc4ccc(OCc5cccc(F)c5)c(Cl)c4)c3c2)o1 [Lapatinib] (partner 2 µM) . Fill in?
// result 0.642

// query Missing value: relative viability, HARA, entry Cc1sc2c(c1C)C(c1ccc(Cl)cc1)=N[C@@H](CC(=O)OC(C)(C)C)c1nnc(C)n1-2 [JQ1] + Cc1nc(NC(=O)N2CCC[C@H]2C(N)=O)sc1-c1ccnc(C(C)(C)C(F)(F)F)c1 [Alpelisib] (partner 2 µM) . Fill in?
// result 0.283

// query Missing value: relative viability, HARA, entry Cc1sc2c(c1C)C(c1ccc(Cl)cc1)=N[C@@H](CC(=O)OC(C)(C)C)c1nnc(C)n1-2 [JQ1] + O=C(CCCCCCC(=O)Nc1ccccc1)NO [Vorinostat] (partner 1 µM) . Fill in?
// result 0.396
